target system: Glycogen synthase kinase-3 beta (Homo sapiens) (UniProt P49841)
Sequence (P49841 whole entry, looked up): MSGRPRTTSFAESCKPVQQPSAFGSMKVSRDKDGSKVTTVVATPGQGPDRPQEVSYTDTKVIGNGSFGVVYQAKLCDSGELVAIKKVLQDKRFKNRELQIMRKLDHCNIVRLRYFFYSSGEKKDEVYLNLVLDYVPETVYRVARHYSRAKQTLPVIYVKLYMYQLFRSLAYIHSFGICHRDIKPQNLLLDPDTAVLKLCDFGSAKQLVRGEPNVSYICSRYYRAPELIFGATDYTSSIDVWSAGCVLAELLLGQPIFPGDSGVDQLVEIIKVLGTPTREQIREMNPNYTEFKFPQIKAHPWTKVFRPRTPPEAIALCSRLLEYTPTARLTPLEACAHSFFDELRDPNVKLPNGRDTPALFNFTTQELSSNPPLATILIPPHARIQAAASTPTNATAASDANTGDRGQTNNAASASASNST
assay details: concentration-response blocking of human GSK3B – biochemical, luminescence, cell-free homogeneous, retest, dose response (AID 434954)
protocol conditions: recombinant GSK3beta, ADP-Glo luminescence, 60 min
Active and inactive are the calls of the source.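 The calls were made as follows: active = IC50 at or below a set limit above the highest tested dose; inconclusive = flat curve with 30 to 70% inhibition, or poor fit; inactive = the rest.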
Classes used: 1 (yes) for active, 0 (no) for inactive

INSERT INTO assay_data (molecule, class_name) VALUES
  ('O=C(O)c1ccc(/C=N/Nc2ccc(C(F)(F)F)cn2)cc1', '1 (yes)'),
  ('CC1=C(C#N)C(c2ccc(O)cc2)C2=C(CC(C)(C)CC2=O)N1 (centres undefined)', '0 (no)'),
  ('CC1=C(C(=O)OC(C)C)C(c2c[nH]c3ccccc23)n2ncnc2N1 (centres undefined)', '1 (yes)'),
  ('O=[N+]([O-])c1ccc2[nH]c(O)c(N=NC3CS(=O)(=O)CC3O)c2c1 (centres undefined)', '1 (yes)');

* * *

target system: UniProtKB P49841
assay details: concentration-response blocking of human GSK3B – biochemical, luminescence, cell-free homogeneous, retest, dose response (AID 434954)
protocol conditions: recombinant GSK3beta, ADP-Glo luminescence, 60 min
Calls of active or inactive are those of the source.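 Rule for the calls: active = IC50 at or below a set limit above the highest tested dose; inconclusive = flat curve with 30 to 70% inhibition, or poor fit; inactive = the rest.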
Classes used: Yes = active, No = inactive

INSERT INTO assay_data (molecule, class_name) VALUES
  ('CC1(C)CC(=O)C2=C(C1)Nc1ccccc1NC2c1cccs1 (configuration not stated)', 'No'),
  ('Cc1[nH]nc2c1C(c1ccc(F)cc1)C1=C(CC(C)(C)CC1=O)N2 (configuration not stated)', 'Yes'),
  ('Cc1ccc(-c2nn(-c3ccccc3)cc2/C=N/O)cc1', 'Yes'),
  ('O=C1CCCC2=C1C(c1cccs1)Nc1ccccc1N2 (configuration not stated)', 'No'),
  ('Cc1c(C#N)c(O)[nH]c(=O)c1N=Nc1ccc(S(N)(=O)=O)cc1', 'Yes'),
  ('Cc1nn(-c2ccccn2)c2c1C(c1ccsc1)C1=C(CCCC1=O)N2 (configuration not stated)', 'No'),
  ('O=C(NCCCN1CCCC1=O)c1c(O)nc2sccn2c1=O', 'No');

* * *

target system: Glycogen synthase kinase-3 beta (Homo sapiens) (UniProt P49841)
assay details: concentration-response blocking of human GSK3B – biochemical, luminescence, cell-free homogeneous, retest, dose response (AID 434954)
protocol conditions: recombinant GSK3beta, ADP-Glo luminescence, 60 min
Activity calls are given as the source filed them.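 How the source made its calls: active means IC50 at or below a set limit above the highest tested dose; inconclusive means flat curve with 30 to 70% inhibition, or poor fit; inactive means the rest.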
Classes used: active, inactive

INSERT INTO results (compound, class_name) VALUES
  ('COc1ccc(C2C(C#N)=C(C)NC3=C2C(=O)CC(C)(C)C3)cc1 (configuration not stated)', 'inactive'),
  ('CC1=C(C(=O)Nc2ccccc2F)C(c2cccs2)C2=C(CCCC2=O)N1 (configuration not stated)', 'inactive'),
  ('Nc1nc(F)nc2c1ncn2[C@@H]1O[C@H](CO)[C@@H](O)[C@H]1O', 'inactive'),
  ('CCOc1cc(C2Nc3ccccc3NC3=C2C(=O)CC(C)(C)C3)ccc1O (configuration not stated)', 'inactive'),
  ('O=C1CCCC2=C1C(c1cccs1)n1nc(SCc3ccccc3)nc1N2 (configuration not stated)', 'inactive'),
  ('Nc1ncnc2c1ncn2C1OC(COP(=O)(O)O)C(O)C1O (configuration not stated)', 'inactive'),
  ('Cc1ccsc1/C=N/Nc1ncnc2nc[nH]c12', 'active'),
  ('O=C(O)c1ccccc1N/N=C\c1ccnc2ccccc12', 'inactive'),
  ('O/N=C/c1cn(-c2ccccc2)nc1-c1ccccc1', 'active'),
  ('NS(=O)(=O)c1ccc(N=Nc2c(O)[nH]c3ccc(Br)cc23)cc1', 'inactive'),
  ('O=c1[nH]c(N/N=C/c2ccccc2)nc2ccccc12', 'inactive'),
  ('CC1=C(C(=O)OCc2ccccc2)C(c2cccnc2)n2ncnc2N1 (configuration not stated)', 'active'),
  ('O=C1CCCC2=C1C(c1cccs1)n1ncnc1N2 (configuration not stated)', 'inactive'),
  ('Cc1ccccc1CSc1nc2n(n1)C(c1cccs1)C1=C(CCCC1=O)N2 (configuration not stated)', 'inactive'),
  ('CCc1ccc(C2NC(=S)NC3=C2C(=O)CC(C)(C)C3)cc1 (configuration not stated)', 'inactive'),
  ('Cc1nn(-c2ccccn2)c2c1C(c1ccncc1)C1=C(CC(C)(C)CC1=O)N2 (configuration not stated)', 'inactive'),
  ('Nc1ncnc2c1ncn2C1OC(CO)C(O)C1O (configuration not stated)', 'inactive'),
  ('COc1cc(/C=N\Nc2ccc([N+](=O)[O-])cc2)ccc1OCC(=O)Nc1ccc(C)c(C)c1', 'inactive'),
  ('CCOC(=O)C1=C(C)Nc2ncnn2C1c1ccccc1F (configuration not stated)', 'inactive'),
  ('N#CC(=C=[N-])c1nc2ccccc2nc1-[n+]1cccc(NC(=O)c2ccccc2)c1', 'inactive'),
  ('CC1(C)CC(=O)C2=C(C1)Nc1ccccc1NC2c1ccc(F)cc1 (configuration not stated)', 'inactive'),
  ('COc1ccc(-c2nn(-c3ccccc3)cc2/C=N/Nc2ccccn2)cc1', 'inactive'),
  ('CCOc1cc(C2C(C(=O)N3CCCCC3)=C(C)NC3=C2C(=O)CC(C)(C)C3)ccc1O (configuration not stated)', 'inactive'),
  ('O=C(Nc1cccc2c1C(=O)NC2=O)c1cccc(N2C(=O)CCC2=O)c1', 'inactive'),
  ('CSc1nc2c(c(=O)[nH]1)C(c1cccs1)C1=C(CCCC1=O)N2 (configuration not stated)', 'inactive'),
  ('Cc1noc2c1C(c1ccc(N(C)C)cc1)C1=C(CC(C)(C)CC1=O)N2 (configuration not stated)', 'inactive'),
  ('COc1ccc(COC(=O)C2=C(C)NC(=O)NC2c2ccc(O)c(OC)c2)cc1 (configuration not stated)', 'inactive'),
  ('COc1cc(C2C(C#N)=C(C)NC3=C2C(=O)CC(C)(C)C3)ccc1O (configuration not stated)', 'inactive'),
  ('COc1ccc(C2C3=C(CC(C)(C)CC3=O)Nc3n[nH]c(C)c32)cc1 (configuration not stated)', 'active'),
  ('O/N=C/c1cn(-c2ccccc2)nc1-c1cccnc1', 'active'),
  ('Nc1ncnc2c1ncn2[C@@H]1O[C@H](CO)[C@@H](O)[C@@H]1O', 'inactive'),
  ('Oc1ccc(/C=N/Nc2ncc(Br)cn2)c(O)c1', 'active'),
  ('CC1=C(C(=O)OCC2CCCO2)C(c2ccsc2)C2=C(CC(C)(C)CC2=O)N1 (configuration not stated)', 'inactive'),
  ('COc1cccc(C2C3=C(CCCC3=O)Nc3[nH]n(-c4ccccc4)c(=O)c32)c1 (configuration not stated)', 'inactive'),
  ('Oc1ccccc1/C=N/Nc1nn[nH]n1', 'inactive'),
  ('COc1ccc(/C=N/Nc2ccc([N+](=O)[O-])cc2)cc1O', 'inactive'),
  ('N#CC(C#N)=C1NC(N)=C(C#N)C(c2ccccc2)=C1C#N', 'active');
